Assay: qHTS assay to identify small molecule agonists of the estrogen receptor beta (ER-beta) signaling pathway - cell viability counter screen (AID 1259380); note: nearly all actives have a fitted effect of over 30% in size
Settings: ER-beta-bla HEK293T viability, CellTiter-Glo luminescence, 16 h; series mostly up to 92.4 µM
Inconclusive results are not listed. Activity calls are given as the source filed them. Calls come from the whole dose curve; as a rule, active = well fitted cell-killing curve with a large enough effect in the repeat runs; inconclusive = weak or mixed curves, or effect the other way; inactive = flat fitted curve, though single readings scatter.
Measured quantity: outcome

O=P(c1ccccc1)(c1ccccc1)c1ccccc1; inactive
CC(C(=O)O)c1ccc(/C=C2\CCCCC2=O)cc1 (stereo not drawn); inactive
Nc1ccc(F)cc1F; inactive

----------
Molecular target: Progesterone receptor (Homo sapiens) (UniProt P06401)
Sequence (P06401 whole entry, looked up): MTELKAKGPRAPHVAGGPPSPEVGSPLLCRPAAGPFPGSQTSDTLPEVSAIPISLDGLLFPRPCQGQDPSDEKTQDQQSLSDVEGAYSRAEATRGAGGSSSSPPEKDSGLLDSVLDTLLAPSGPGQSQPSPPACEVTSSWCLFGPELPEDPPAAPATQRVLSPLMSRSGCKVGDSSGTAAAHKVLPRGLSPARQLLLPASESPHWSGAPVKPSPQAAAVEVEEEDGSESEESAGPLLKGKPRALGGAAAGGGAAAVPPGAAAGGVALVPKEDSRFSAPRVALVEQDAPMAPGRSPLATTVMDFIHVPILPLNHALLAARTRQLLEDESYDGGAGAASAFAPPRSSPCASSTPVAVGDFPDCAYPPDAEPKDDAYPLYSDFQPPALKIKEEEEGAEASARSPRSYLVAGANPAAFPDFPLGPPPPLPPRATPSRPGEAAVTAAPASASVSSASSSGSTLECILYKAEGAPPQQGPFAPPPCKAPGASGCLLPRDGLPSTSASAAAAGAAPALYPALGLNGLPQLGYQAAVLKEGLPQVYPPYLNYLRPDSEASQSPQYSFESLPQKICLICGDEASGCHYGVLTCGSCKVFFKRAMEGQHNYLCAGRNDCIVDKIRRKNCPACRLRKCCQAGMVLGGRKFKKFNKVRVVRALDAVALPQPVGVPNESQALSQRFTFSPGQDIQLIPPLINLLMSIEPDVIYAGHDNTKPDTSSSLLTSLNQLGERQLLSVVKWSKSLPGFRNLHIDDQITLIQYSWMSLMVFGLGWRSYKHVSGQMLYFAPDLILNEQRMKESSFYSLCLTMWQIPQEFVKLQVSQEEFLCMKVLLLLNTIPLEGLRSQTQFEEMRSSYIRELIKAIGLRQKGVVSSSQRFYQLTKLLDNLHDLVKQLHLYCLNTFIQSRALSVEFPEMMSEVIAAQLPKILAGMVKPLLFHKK
Experiment: qHTS assay to identify small molecule agonists of the progesterone receptor (PR) signaling pathway (AID 1346784); note: nearly all actives have a fitted effect of over 30% in size
Conditions: PR-UAS-bla HEK293T, beta-lactamase FRET ratio, 16 h; series mostly up to 92.4 µM
Text: U.S. Tox21 Program National Center for Advancing Translational Sciences [NCATS] NIH Chemical Genomics Center [NCGC] U.S. Environmental Protection Agency [EPA] National Institutes of Environmental Health Sciences [NIEHS] National Toxicology Program [NTP] U.S. Food and Drug Administration [FDA] […] Endocrine disrupting chemicals (EDCs) and their interactions with steroid hormone receptors like PR causes disruption of normal endocrine function. […]
Inconclusive results are not listed. Active and inactive are the calls of the source. Calls come from the whole dose curve.
Pick one and only one: active, inactive

Sample answers from the record:
C=C[Si](OCC)(OCC)OCC; inactive
CCC(C)C1N=C(C)C(C)S1 (stereo not drawn); inactive
CC(=O)Nc1cccc(N)c1; inactive
O=C(OCCN1CCOCC1)c1cccnc1Nc1cccc(C(F)(F)F)c1; inactive

Here's the next entry for you.
stdin: Could you please tell me the result logged for C=CC(=O)NC(C)(C)C in this assay?
stdout: inactive

----------
Biological target: Nuclear receptor subfamily 1 group I member 3 (Homo sapiens)
Assay: qHTS assay to identify small molecule agonists of the constitutive androstane receptor (CAR) signaling pathway (AID 1224839); note: nearly all actives have a fitted effect of over 15% in size;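 for activation: HepG2 cells stably carrying human CAR and a CYP2B6 luciferase reporter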
Conditions: HepG2 hCAR CYP2B6-luciferase, agonist mode, 24 h; series mostly up to 92.4 µM
Records with an inconclusive call do not appear. Calls of active or inactive are those of the source. Calls follow the shape of the dose curve; as a rule, active = well fitted activation curve with a large enough effect in the repeat runs; inconclusive = weak or mixed curves; inactive = no such curve, though single readings can be large or run the other way.
Pick one and only one: True (active), False (inactive)

Sample answers from the record:
CC(=O)S[C@H](C(=O)N[C@H]1Cc2ccccc2[C@H]2CCC[C@@H](C(=O)O)N2C1=O)C(C)C; False
COc1ccc(C(=O)c2ccc(C)cc2)c(O)c1; True
COc1ccc(C(=O)Nc2ccccc2)cc1[N+](=O)[O-]; True
O=c1[nH][nH]c2ccccc12; False
Nc1ccccc1Nc1ccccc1; True
Cc1c(Cl)cccc1Nc1ccccc1C(=O)O; False

Here's the next entry for you.
stdin: Could you please tell me the result logged for CC(CCl)OC(C)CCl (configuration not stated) in this assay?
stdout: False

----------
Assay: qHTS assay to identify small molecule antagonists of the thyroid receptor (TR) signaling pathway (AID 743065); note: nearly all actives have a fitted effect of over 55% in size
Conditions: GH3.TRE-Luc, T3-stimulated luciferase inhibition, 23.5 h; series mostly up to 70.3 µM
Results filed as inconclusive are left out. Activity calls are given as the source filed them. Calls come from the whole dose curve; as a rule, active = well fitted inhibition curve with a large enough effect in the repeat runs; inconclusive = weak or mixed curves; inactive = no such curve, though single readings can be large or run the other way.
Pick one and only one: active, inactive

O=c1c2ccccc2oc2ccccc12; inactive
CC(C)CCCCCCCOC(=O)c1ccc(C(=O)OCCCCCCCC(C)C)c(C(=O)OCCCCCCCC(C)C)c1; inactive
Cc1ccc(NC=O)c(C)c1; inactive
O=C(O)c1ccc2cc(O)ccc2c1; inactive
CCCN(C1CCN(C(=O)C2CCNCC2)CC1)[C@@H]1CCc2ccc(OC)cc2C1; active
CCn1nc(Cc2ccccc2)cc1C1CCN(C[C@H]2C[C@H](N(C)[C@@H](C(=O)O)C(C)C)C[C@@H]2c2cccc(F)c2)CC1; active

stdin: Could you please tell me the result logged for C=C[Si](OCC)(OCC)OCC in this assay?
stdout: inactive

stdin: Could you please tell me the result logged for SCCOCCOCCS in this assay?
stdout: inactive
